Reported p-Smad1/5/8 (%) values are given for each entry in this list.
# Subject of test: growth factor receptors
# Assay name: cell-based or functional assay
No end group written: not given here.
Write the answer as a number in %, unit excluded.

Query: # get_value(readout='p-Smad1/5/8 (%)', item= VPQALSPINMLYFNEKNQIIYGKIPFLQHNK (not fully specified) [GFR-binding compound of SEQ ID NO: 75] )
Response: 54

Query: Bench note: what p-Smad1/5/8 (%) did VSQDLSAISTLYLKIVRKEPLKNYQEMVEE (not fully specified) [GFR-binding compound of SEQ ID NO: 98] show?
Response: 39

Here is another binder to look at.
Query: Fill blank: measured p-Smad1/5/8 (%) of the binder VPTHHSAISMLYLELGGDKPLENYQFLQ (not fully specified) [GFR-binding compound of SEQ ID NO: 97] is ____.
Response: 46

Entry source: patent US20190224279A1
